src = patent US20080193398A1

Assay: UV absorption (UV λmax and εmax) in solution
Assay type: physicochemical
Settings: DMSO
recorded.metric: εmax (M⁻¹ cm⁻¹)
Give bare numbers, in M⁻¹ cm⁻¹.

Take a look at these entries with their results.
Can you look up the measured εmax of CCOC(=O)/C=C/c1ccc(NC2=NC3=NC(Nc4ccc(/C=C/C(=O)OCC)cc4)=NC4=NC(Nc5ccc(/C=C/C(=O)OCC)cc5)=NC(=N2)N34)cc1 for me? 135900

Thanks! And O=[N+]([O-])c1cccc(NC2=NC3=NC(Nc4cccc([N+](=O)[O-])c4)=NC4=NC(Nc5cccc([N+](=O)[O-])c5)=NC(=N2)N34)c1 ? 113000

Thanks! And COC(=O)c1ccc(NC2=NC3=NC(Nc4ccc(C(=O)OC)cc4)=NC4=NC(Nc5ccc(C(=O)OC)cc5)=NC(=N2)N34)cc1 ? 116000

Please give εmax, item by item, for the list that follows.
1. c1ccc(-c2ccc(OC3=NC4=NC(Oc5ccc(-c6ccccc6)cc5)=NC5=NC(Oc6ccc(-c7ccccc7)cc6)=NC(=N3)N45)cc2)cc1
2. C(=C\c1ccc(NC2=NC3=NC(Nc4ccc(/C=C/c5ccccc5)cc4)=NC4=NC(Nc5ccc(/C=C/c6ccccc6)cc5)=NC(=N2)N34)cc1)/c1ccccc1
3. O=C(c1ccccc1)c1ccc(NC2=NC3=NC(Nc4ccc(C(=O)c5ccccc5)cc4)=NC4=NC(Nc5ccc(C(=O)c6ccccc6)cc5)=NC(=N2)N34)cc1
4. CCCCCCCCC(CCCCCC)COC(=O)c1ccc(NC2=NC3=NC(Nc4ccc(C(=O)OCC(CCCCCC)CCCCCCCC)cc4)=NC4=NC(Nc5ccc(C(=O)OCC(CCCCCC)CCCCCCCC)cc5)=NC(=N2)N34)cc1 (stereo not shown)
5. CCCCC(CC)COC(=O)/C=C/c1ccc(NC2=NC3=NC(Nc4ccc(/C=C/C(=O)OCC(CC)CCCC)cc4)=NC4=NC(Nc5ccc(/C=C/C(=O)OCC(CC)CCCC)cc5)=NC(=N2)N34)cc1 (stereo not shown)
6. CCCCCCCCCCCCCCCCCCOC(=O)c1ccc(NC2=NC3=NC(Nc4ccc(C(=O)OCCCCCCCCCCCCCCCCCC)cc4)=NC4=NC(Nc5ccc(C(=O)OCCCCCCCCCCCCCCCCCC)cc5)=NC(=N2)N34)cc1

81000
163000
112000
121000
154000
117000

Can you look up the measured εmax of CC12CCC(C1)C(C)(C)C2OC(=O)c1ccc(NC2=NC3=NC(Nc4ccc(C(=O)OC5C6(C)CCC(C6)C5(C)C)cc4)=NC4=NC(Nc5ccc(C(=O)OC6C7(C)CCC(C7)C6(C)C)cc5)=NC(=N2)N34)cc1 (stereo not shown) for me? 150000

* * *

Could you please report measured melting point for the items listed next?

Can you look up the measured melting point of C(=C\c1ccc(NC2=NC3=NC(Nc4ccc(/C=C/c5ccccc5)cc4)=NC4=NC(Nc5ccc(/C=C/c6ccccc6)cc5)=NC(=N2)N34)cc1)/c1ccccc1 for me? > 270 °C

Thanks! And c1ccc2[nH]c(-c3ccc(NC4=NC5=NC(Nc6ccc(-c7nc8ccccc8[nH]7)cc6)=NC6=NC(Nc7ccc(-c8nc9ccccc9[nH]8)cc7)=NC(=N4)N56)cc3)nc2c1 ? > 275 °C

Thanks! And CC1CC(OC(=O)c2ccc(NC3=NC4=NC(Nc5ccc(C(=O)OC6CC(C)CC(C)(C)C6)cc5)=NC5=NC(Nc6ccc(C(=O)OC7CC(C)CC(C)(C)C7)cc6)=NC(=N3)N45)cc2)CC(C)(C)C1 (centres unmarked) ? > 275 °C

Thanks! And c1ccc(-c2ccc(NC3=NC4=NC(Nc5ccc(-c6ccccc6)cc5)=NC5=NC(Nc6ccc(-c7ccccc7)cc6)=NC(=N3)N45)cc2)cc1 ? > 310 °C

// switching to the query molecule
Can you look up the measured melting point of CC(C)[C@@H]1CC[C@@H](C)C[C@H]1OC(=O)c1ccc(NC2=NC3=NC(Nc4ccc(C(=O)O[C@@H]5C[C@H](C)CC[C@H]5C(C)C)cc4)=NC4=NC(Nc5ccc(C(=O)O[C@@H]6C[C@H](C)CC[C@H]6C(C)C)cc5)=NC(=N2)N34)cc1 for me? 202 to 206 °C
